Listing of recorded total protein half-life in vivo by entry.
assay: total protein half-life in vivo (active degradation + dilution); higher = more stable protein; conditions: E. coli NCM3722 delta-lon; growth: N-lim chemostat; doubling time 6 h
recorded_endpoint: total protein half-life in vivo (h)

>>> recorded_value("MKQTVYIASPESQQIHVWNLNHEGALTLTQVVDVPGQVQPMVVSPDKRYLYVGVRPEFRVLAYRIAPDDGALTFAAESALPGSPTHISTDHQGQFVFVGSYNAGNVSVTRLEDGLPVGVVDVVEGLDGCHSANISPDNRTLWVPALKQDRICLFTVSDDGHLVAQDPAEVTTVEGAGPRHMVFHPNEQYAYCVNELNSSVDVWELKDPHGNIECVQTLDMMPENFSDTRWAADIHITPDGRHLYACDRTASLITVFSVSEDGSVLSKEGFQPTETQPRGFNVDHSGKYLIAAGQKSHHISVYEIVGEQGLLHEKGRYAVGQGPMWVVVNAH")
6.52
>>> recorded_value("MPHNPIRVVVGPANYFSHPGSFNHLHDFFTDEQLSRAVWIYGKRAIAAAQTKLPPAFGLPGAKHILFRGHCSESDVQQLAAESGDDRSVVIGVGGGALLDTAKALARRLGLPFVAVPTIAATCAAWTPLSVWYNDAGQALHYEIFDDANFMVLVEPEIILNAPQQYLLAGIGDTLAKWYEAVVLAPQPETLPLTVRLGINNAQAIRDVLLNSSEQALSDQQNQQLTQSFCDVVDAIIAGGGMVGGLGDRFTRVAAAHAVHNGLTVLPQTEKFLHGTKVAYGILVQSALLGQDDVLAQLTGAYQRFHLPTTLAELEVDINNQAEIDKVIAHTLRPVESIHYLPVTLTPDTLRAAFKKVESFKA")
4.91
